- STUDY_TARGET: HLA-A*01:01
- ASSAY_METHOD_TEXT: IEDB peptide-MHC binding, purified MHC/direct/fluorescence; filed as Kd, often an IC50 or EC50 that approximates it; bounds were set here for any values at or beyond the usual limits of such assays
- DETAILS: source organism: Influenza A virus (A/SW/KS/13481-T/00(H1N2))
ASSAY_READOUT: Kd

[[record]]
residue_string = "HEKGINPNY"
result = "≥ 20 µM"


----------
- STUDY_TARGET: HLA-A*03:01
- ASSAY_METHOD_TEXT: IEDB peptide-MHC binding, purified MHC/competitive/radioactivity; filed as Kd, often an IC50 or EC50 that approximates it; bounds were set here for any values at or beyond the usual limits of such assays
- DETAILS: source organism: Dengue virus 1 Nauru/West Pac/1974
ASSAY_READOUT: Kd

[[record]]
residue_string = "FLSGRGLGK"
result = "0.091 µM"


----------
- STUDY_TARGET: HLA-B*58:01
- ASSAY_METHOD_TEXT: IEDB peptide-MHC binding, purified MHC/direct/fluorescence; filed as Kd, often an IC50 or EC50 that approximates it; bounds were set here for any values at or beyond the usual limits of such assays
- DETAILS: source organism: Influenza A virus (A/Hong Kong/507/97(H5N1))
pKd: −log10 of the molar value.
ASSAY_READOUT: pKd

[[record]]
residue_string = "KSCLPACVY"
numeric_value = 6.68


----------
- STUDY_TARGET: HLA-B*15:01
- ASSAY_METHOD_TEXT: IEDB peptide-MHC binding, purified MHC/direct/fluorescence; filed as Kd, often an IC50 or EC50 that approximates it; bounds were set here for any values at or beyond the usual limits of such assays
- DETAILS: source organism: Vibrio cholerae
ASSAY_READOUT: Kd

[[record]]
residue_string = "RYDYANLCQ"
study_target = "HLA-B*15:01"
assay_readout = "Kd"
result = "≥ 20 µM"


----------
- STUDY_TARGET: HLA-B*40:01
- ASSAY_METHOD_TEXT: IEDB peptide-MHC binding, purified MHC/direct/fluorescence; filed as Kd, often an IC50 or EC50 that approximates it; bounds were set here for any values at or beyond the usual limits of such assays
- DETAILS: source organism: Influenza A virus (A/Wisconsin/4755/1994(H1N1))
pKd: −log10 of the molar value.
ASSAY_READOUT: pKd

[[record]]
residue_string = "ITKEKKEEL"
study_target = "HLA-B*40:01"
result = "≤ 4.70"


----------
- STUDY_TARGET: HLA-B*18:01
- ASSAY_METHOD_TEXT: IEDB peptide-MHC binding, purified MHC/competitive/fluorescence; filed as Kd, often an IC50 or EC50 that approximates it; bounds were set here for any values at or beyond the usual limits of such assays
- DETAILS: source organism: Orthohantavirus andesense
ASSAY_READOUT: Kd

[[record]]
residue_string = "RMMATKDSF"
result = "≥ 20 µM"


----------
Reported values of log10 of Kd for individual entries
- STUDY_TARGET: HLA-A*02:03
- ASSAY_METHOD_TEXT: IEDB peptide-MHC binding, purified MHC/competitive/radioactivity; filed as Kd, often an IC50 or EC50 that approximates it; bounds were set here for any values at or beyond the usual limits of such assays
- DETAILS: source organism: Vaccinia virus WR
ASSAY_READOUT: log10 of Kd (log10 of the value in nM)

[[record]]
residue_string = "QMYRKFSRCT"
numeric_value = 3.36

[[record]]
residue_string = "SLKRFTHTT"
numeric_value = 0.96

[[record]]
residue_string = "GLFDINVIGL"
numeric_value = 0.16

[[record]]
residue_string = "NMDWRSLTQV"
numeric_value = 1.24

[[record]]
residue_string = "TLNHVLALK"
numeric_value = 2.45

[[record]]
residue_string = "IASSMKGENV"
numeric_value = 3.51

[[record]]
residue_string = "TLLNETAKV"
numeric_value = 1.92


----------
- STUDY_TARGET: HLA-B*51:01
- ASSAY_METHOD_TEXT: IEDB peptide-MHC binding, purified MHC/competitive/fluorescence; bounds were set here for any values at or beyond the usual limits of such assays
- DETAILS: source organism: Rattus norvegicus
ASSAY_READOUT: IC50

[[record]]
residue_string = "SLLERGQQLGV"
assay_readout = "IC50"
result = "≥ 20 µM"


----------
- STUDY_TARGET: HLA-B*83:01
- ASSAY_METHOD_TEXT: IEDB peptide-MHC binding, purified MHC/competitive/fluorescence; filed as Kd, often an IC50 or EC50 that approximates it; bounds were set here for any values at or beyond the usual limits of such assays
- DETAILS: source organism: Salmonella enterica subsp. enterica serovar Typhi
ASSAY_READOUT: Kd

[[record]]
residue_string = "YLRNAGAAM"
assay_readout = "Kd"
result = "≥ 5 µM"


----------
- STUDY_TARGET: HLA-A*26:01
- ASSAY_METHOD_TEXT: IEDB peptide-MHC binding, purified MHC/direct/fluorescence; filed as Kd, often an IC50 or EC50 that approximates it; bounds were set here for any values at or beyond the usual limits of such assays
- DETAILS: source organism: Camelpox virus M-96
ASSAY_READOUT: Kd (nM)

[[record]]
residue_string = "ETIEILRNY"
result_units = "nM"
numeric_value = 2.1


----------
- STUDY_TARGET: HLA-B*46:01
- ASSAY_METHOD_TEXT: IEDB peptide-MHC binding, purified MHC/direct/fluorescence; filed as Kd, often an IC50 or EC50 that approximates it; bounds were set here for any values at or beyond the usual limits of such assays
- DETAILS: source organism: Influenza A virus (A/Hong Kong/507/97(H5N1))
pKd: −log10 of the molar value.
ASSAY_READOUT: pKd

[[record]]
residue_string = "KSCLPACVY"
result = "≤ 4.70"


----------
- STUDY_TARGET: HLA-B*35:01
- ASSAY_METHOD_TEXT: IEDB peptide-MHC binding, purified MHC/competitive/radioactivity; filed as Kd, often an IC50 or EC50 that approximates it; bounds were set here for any values at or beyond the usual limits of such assays
- DETAILS: source organism: Triticum aestivum
ASSAY_READOUT: Kd (nM)

[[record]]
residue_string = "YPQPQLPY"
study_target = "HLA-B*35:01"
comparison_symbol = "="
numeric_value = 249

[[record]]
residue_string = "QPSSQVSF"
study_target = "HLA-B*35:01"
comparison_symbol = "≥"
numeric_value = 23900


----------
- STUDY_TARGET: HLA-A*02:01
- ASSAY_METHOD_TEXT: IEDB peptide-MHC binding, purified MHC/direct/fluorescence; filed as Kd, often an IC50 or EC50 that approximates it; bounds were set here for any values at or beyond the usual limits of such assays
- DETAILS: source organism: Marburg virus - Musoke, Kenya, 1980
ASSAY_READOUT: Kd (nM)

[[record]]
residue_string = "VMNPLGLNV"
numeric_value = 320

[[record]]
residue_string = "FLLDYEGTL"
numeric_value = 6


----------
- STUDY_TARGET: HLA-B*07:02
- ASSAY_METHOD_TEXT: IEDB peptide-MHC binding, purified MHC/direct/fluorescence; filed as Kd, often an IC50 or EC50 that approximates it; bounds were set here for any values at or beyond the usual limits of such assays
- DETAILS: source organism: Influenza A virus (A/Wisconsin/4755/1994(H1N1))
pKd: −log10 of the molar value.
ASSAY_READOUT: pKd

[[record]]
residue_string = "ITKEKKEEL"
result = "≤ 4.70"


----------
Reported values of Kd for individual entries
- STUDY_TARGET: HLA-B*44:03
- ASSAY_METHOD_TEXT: IEDB peptide-MHC binding, purified MHC/competitive/radioactivity; filed as Kd, often an IC50 or EC50 that approximates it; bounds were set here for any values at or beyond the usual limits of such assays
- DETAILS: source organism: Mammarenavirus brazilense
ASSAY_READOUT: Kd

[[record]]
residue_string = "YEQQTVNST"
assay_readout = "Kd"
result = "≥ 78.1 µM"

[[record]]
residue_string = "KEPGVSRELL"
assay_readout = "Kd"
result = "≥ 70.1 µM"


----------
- STUDY_TARGET: HLA-A*03:01
- ASSAY_METHOD_TEXT: IEDB peptide-MHC binding, purified MHC/competitive/fluorescence; filed as Kd, often an IC50 or EC50 that approximates it; bounds were set here for any values at or beyond the usual limits of such assays
- DETAILS: source organism: Influenza A virus (A/Fort Monmouth/1/1947-mouse adapted(H1N1))
pKd: −log10 of the molar value.
ASSAY_READOUT: pKd

[[record]]
residue_string = "ETMEVVQQTR"
study_target = "HLA-A*03:01"
result = "≤ 4.70"

